# Procedure Summary: Plasma clearance in po and iv dosed rat
# Format: ADME, organism-based
Recorded clearance by entry
Response body: numeric value in mL/min/kg, unit text excluded.

Check out these entries, answers already filled in.
COc1ccc([C@@H]2CN(C)Cc3cc(OCCCN4CCOC[C@@H]4C)ccc32)cc1; 18.1
CCOc1ccc(C2CN(C)Cc3cc(OCCCN4CCC(F)CC4)ccc32)cc1 (stereo not given); 29.9
CSc1ccc(C2CN(C)Cc3cc(OCCCN4CCOCC4)ccc32)cc1 (racemic); 14
CSc1ccc(C2CN(C)Cc3cc(OCCCN4CCC(F)CC4)ccc32)cc1 (racemic); 18.5

// next entry
Reported clearance, molecule COc1ccc(C2CN(C)Cc3cc(OCCCN4CCC(F)CC4)ccc32)cc1 (stereo in doubt; 12b) : ____
32.3

* * *

# Procedure Summary: Half life in po and iv dosed rat
# Type: ADME, organism-based
# Experimental Parameters: in vivo
Observable: half-life (h)
Response body: numeric value in h, unit text excluded.

Check out these entries, answers already filled in.
COc1ccc(C2CN(C)Cc3cc(OCCCN4CCC(F)CC4)ccc32)cc1 (stereo in doubt; 12b); 13.3
CSc1ccc(C2CN(C)Cc3cc(OCCCN4CCC(F)CC4)ccc32)cc1 (racemic); 9.9
CSc1ccc(C2CN(C)Cc3cc(OCCCN4CCOCC4)ccc32)cc1 (racemic); 6.6
CCOc1ccc(C2CN(C)Cc3cc(OCCCN4CCC(F)CC4)ccc32)cc1 (stereo not given); 10.3

// next entry
Reported half-life, molecule `COc1ccc([C@@H]2CN(C)Cc3cc(OCCCN4CCOC[C@@H]4C)ccc32)cc1` : ____
9

* * *

Quick record of pKi values for Sodium-dependent serotonin transporter (Rattus norvegicus).
When answering, recall that pKi equals minus log10 of the concentration in mol/L, and write that number alone.

CN1Cc2cc(OCCCN3CCC(F)CC3)ccc2C(c2ccccc2Cl)C1 (stereo not given); 7.77
CN1Cc2cc(OCCCN3CCC(F)CC3)ccc2C(c2ccc(C(F)(F)F)cc2)C1 (stereo not given); 7.85
CN1Cc2cc(OCCCN3CCC(F)CC3)ccc2C(c2ccc(SC(F)(F)F)cc2)C1 (stereo not given); 7.44
CN1Cc2cc(OCCCN3CCC(F)CC3)ccc2C(c2ccc(C#N)cc2)C1 (stereo not given); 8.11

// next entry
Reported pKi, molecule CN1Cc2cc(OCCCN3CCC(F)CC3)ccc2C(c2cc(Cl)ccc2Cl)C1 (stereo not given) : ____
6.92

* * *

# Tested On: Histamine H3 receptor (Homo sapiens)
# Sequence (Q9Y5N1 whole entry): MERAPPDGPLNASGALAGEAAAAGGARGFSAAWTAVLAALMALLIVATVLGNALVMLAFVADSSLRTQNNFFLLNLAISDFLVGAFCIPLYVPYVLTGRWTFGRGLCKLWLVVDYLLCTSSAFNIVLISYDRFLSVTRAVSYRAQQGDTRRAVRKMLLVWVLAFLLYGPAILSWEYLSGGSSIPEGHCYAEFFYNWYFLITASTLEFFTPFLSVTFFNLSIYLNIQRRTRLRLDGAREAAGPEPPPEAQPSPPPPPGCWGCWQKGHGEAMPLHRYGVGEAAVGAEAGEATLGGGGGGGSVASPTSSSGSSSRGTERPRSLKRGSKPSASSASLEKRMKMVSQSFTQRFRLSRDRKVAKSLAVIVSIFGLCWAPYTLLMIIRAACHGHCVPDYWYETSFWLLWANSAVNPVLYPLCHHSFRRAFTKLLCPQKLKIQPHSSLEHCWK
# Procedure Summary: Antagonist activity at human histamine H3 receptor
# Format: functional
# Experimental Parameters: read-out: pA2 (converted)
Observable: Kb
Please answer using the number first and the unit second.

COc1ccc(C2CN(C)Cc3cc(OCCCN4CCOCC4)ccc32)cc1 (centres undefined); 2.29 nM
CN1Cc2cc(OCCCN3CCC(F)CC3)ccc2C(c2ccc(C#N)cc2)C1 (centres undefined); 1.41 nM
COc1ccc([C@@H]2CN(C)Cc3cc(OCCCN4CCOC[C@@H]4C)ccc32)cc1; 0.891 nM

// next entry
Reported Kb, compound `COc1ccc([C@H]2CN(C)Cc3cc(OCCCN4CCOC[C@@H]4C)ccc32)cc1` : ____
2.95 nM
